These measurements were taken from paper PMC9380671.

# Study target: AChE (Homo sapiens, UniProt P22303)
# Sequence (P22303 32-614): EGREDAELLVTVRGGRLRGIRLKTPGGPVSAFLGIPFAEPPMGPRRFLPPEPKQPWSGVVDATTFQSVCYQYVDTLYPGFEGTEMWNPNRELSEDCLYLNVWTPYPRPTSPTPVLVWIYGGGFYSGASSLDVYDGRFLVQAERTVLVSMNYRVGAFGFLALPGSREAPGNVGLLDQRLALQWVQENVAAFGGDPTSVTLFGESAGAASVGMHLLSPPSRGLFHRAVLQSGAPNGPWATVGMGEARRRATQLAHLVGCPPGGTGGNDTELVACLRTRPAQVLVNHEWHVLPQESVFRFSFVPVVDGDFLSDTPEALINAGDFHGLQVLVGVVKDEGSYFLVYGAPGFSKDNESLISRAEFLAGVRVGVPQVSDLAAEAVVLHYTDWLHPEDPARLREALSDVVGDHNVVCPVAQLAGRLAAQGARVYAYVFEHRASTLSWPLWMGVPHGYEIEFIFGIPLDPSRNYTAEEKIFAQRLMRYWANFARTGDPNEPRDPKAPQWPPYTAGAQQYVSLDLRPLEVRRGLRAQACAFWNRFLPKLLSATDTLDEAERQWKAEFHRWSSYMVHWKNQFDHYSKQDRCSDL
# Protocol text: AChE inhibition (DTNB, acetylthiocholine)
# Format: biochemical
# Condition parameters: read-out: AChE (IC50, μM) ± SD
# Protocol: All compounds were dissolved in MeOH.
Decision: IC50 beneath 30 µM gives yes; IC50 meeting or exceeding 30 µM gives no.

I wonder whether COc1ccc(/C=C2\CN(S(C)(=O)=O)CC3(C2=O)C(c2ccc(OC)c(OC)c2)CN(C)C32C(=O)Nc3ccccc32)cc1OC (centres unmarked) [Compound 6n] has IC50 below 30 µM. Can you tell? yes

And what about the molecule CN1CC(c2ccccc2)C2(CN(S(C)(=O)=O)C/C(=C\c3ccccc3)C2=O)C12C(=O)Nc1ccc(Cl)cc12 (centres unmarked) [Compound 6b] ? yes

And what about the molecule CCS(=O)(=O)N1C/C(=C\c2ccc(Cl)cc2)C(=O)C2(C1)C(c1ccc(Cl)cc1)CN(C)C21C(=O)Nc2ccccc21 (centres unmarked) [Compound 6k] ? no

And what about the molecule CCS(=O)(=O)N1C/C(=C\c2ccc(F)cc2)C(=O)C2(C1)C(c1ccc(F)cc1)CN(C)C21C(=O)Nc2ccc(Cl)cc21 (centres unmarked) [Compound 6h] ? yes

###

# Tested on: A431 (skin squamous) cancer cell line
# Protocol text: MTT antiproliferation, A431
# Type: cell-based, human
# Condition parameters: IC50 of RPE1/IC50 of cancer cell line
Consider the following molecules; for each one, report its SI (selectivity index) A431.
When you answer, write just the number.

Please provide the recorded SI (selectivity index) A431 for CCS(=O)(=O)N1C/C(=C\c2ccc(Cl)cc2)C(=O)C2(C1)C(c1ccc(Cl)cc1)CN(C)C21C(=O)Nc2ccccc21 (stereo not drawn) [Compound 6k] , tested on A431 (skin squamous) cancer cell line. 5.0

And what about the molecule CN1CC(c2ccc(F)cc2)C2(CN(S(C)(=O)=O)C/C(=C\c3ccc(F)cc3)C2=O)C12C(=O)Nc1ccccc12 (stereo not drawn) [Compound 6e] ? 3.1

And what about the molecule CN1CC(c2ccc(Cl)cc2)C2(CN(S(C)(=O)=O)C/C(=C\c3ccc(Cl)cc3)C2=O)C12C(=O)Nc1ccccc12 (stereo not drawn) [Compound 6i] ? 3.4

And what about the molecule CN1CC(c2ccc(Br)cc2)C2(CN(S(C)(=O)=O)C/C(=C\c3ccc(Br)cc3)C2=O)C12C(=O)Nc1ccccc12 (stereo not drawn) [Compound 6m] ? 6.1

And what about the molecule CCS(=O)(=O)N1C/C(=C\c2ccc(F)cc2)C(=O)C2(C1)C(c1ccc(F)cc1)CN(C)C21C(=O)Nc2ccccc21 (stereo not drawn) [Compound 6g] ? 5.4

And what about the molecule CN1CC(c2ccc(Cl)cc2)C2(CN(S(C)(=O)=O)C/C(=C\c3ccc(Cl)cc3)C2=O)C12C(=O)Nc1ccc(Cl)cc12 (stereo not drawn) [Compound 6j] ? 3.1

And what about the molecule CN1CC(c2ccccc2)C2(CN(S(C)(=O)=O)C/C(=C\c3ccccc3)C2=O)C12C(=O)Nc1ccc(Cl)cc12 (stereo not drawn) [Compound 6b] ? 2.7

###

# Study target: EGFR (Homo sapiens)
# Construct: Western blot technique was considered for EGFR and VEGFR-2 properties determination; endogenous in cells; host or cells: MCF7 (breast cancer cell line)
# Sequence (P00533 25-1210): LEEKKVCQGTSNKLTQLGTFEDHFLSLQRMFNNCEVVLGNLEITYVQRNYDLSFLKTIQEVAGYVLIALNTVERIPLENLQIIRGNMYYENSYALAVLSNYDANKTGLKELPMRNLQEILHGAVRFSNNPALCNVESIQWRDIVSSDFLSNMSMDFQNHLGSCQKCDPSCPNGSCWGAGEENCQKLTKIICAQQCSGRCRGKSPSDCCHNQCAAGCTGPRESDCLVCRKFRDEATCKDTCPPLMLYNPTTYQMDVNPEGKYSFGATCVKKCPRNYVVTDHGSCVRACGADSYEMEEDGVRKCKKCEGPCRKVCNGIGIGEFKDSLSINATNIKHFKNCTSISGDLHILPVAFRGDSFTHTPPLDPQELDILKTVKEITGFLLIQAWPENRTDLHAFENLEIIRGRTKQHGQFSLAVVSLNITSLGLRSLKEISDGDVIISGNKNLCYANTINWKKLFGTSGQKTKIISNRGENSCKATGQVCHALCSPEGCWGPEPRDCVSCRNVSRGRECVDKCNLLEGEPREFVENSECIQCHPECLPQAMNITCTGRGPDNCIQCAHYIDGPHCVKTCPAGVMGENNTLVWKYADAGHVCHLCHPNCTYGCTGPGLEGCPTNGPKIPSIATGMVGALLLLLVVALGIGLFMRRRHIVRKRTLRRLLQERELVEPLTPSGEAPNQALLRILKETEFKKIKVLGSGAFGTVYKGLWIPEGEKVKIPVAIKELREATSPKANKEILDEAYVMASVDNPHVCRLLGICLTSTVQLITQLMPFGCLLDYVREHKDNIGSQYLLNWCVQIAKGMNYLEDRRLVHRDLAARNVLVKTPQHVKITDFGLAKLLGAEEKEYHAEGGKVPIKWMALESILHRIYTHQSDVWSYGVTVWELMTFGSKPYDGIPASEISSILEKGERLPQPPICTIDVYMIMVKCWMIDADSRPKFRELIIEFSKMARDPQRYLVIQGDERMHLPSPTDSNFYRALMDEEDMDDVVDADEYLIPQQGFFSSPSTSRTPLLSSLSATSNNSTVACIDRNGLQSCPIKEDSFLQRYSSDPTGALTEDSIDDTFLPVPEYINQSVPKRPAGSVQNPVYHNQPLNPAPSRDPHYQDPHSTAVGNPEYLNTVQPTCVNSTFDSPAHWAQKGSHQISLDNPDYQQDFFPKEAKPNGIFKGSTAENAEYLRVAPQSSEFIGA
# Assay type: cell-based
# Condition parameters: western blot, MCF7, compound at its MTT IC50
Consider the following compounds; for each one, report its EGFR % Inhibition.

Item under review: COc1ccc(/C=C2\CN(S(C)(=O)=O)CC3(C2=O)C(c2ccc(OC)c(OC)c2)CN(C)C32C(=O)Nc3ccccc32)cc1OC (stereo not drawn) [Compound 6n] . Reported EGFR % Inhibition? 69.6%

And what about the compound CCS(=O)(=O)N1C/C(=C\c2ccc(Cl)cc2)C(=O)C2(C1)C(c1ccc(Cl)cc1)CN(C)C21C(=O)Nc2ccc(Cl)cc21 (stereo not drawn) [Compound 6l] ? 65.7%

And what about the compound CN1CC(c2ccccc2)C2(CN(S(C)(=O)=O)C/C(=C\c3ccccc3)C2=O)C12C(=O)Nc1ccc(Cl)cc12 (stereo not drawn) [Compound 6b] ? 54.1%

And what about the compound CN1CC(c2ccc(F)cc2)C2(CN(S(C)(=O)=O)C/C(=C\c3ccc(F)cc3)C2=O)C12C(=O)Nc1ccc(Cl)cc12 (stereo not drawn) [Compound 6f] ? 69.3%

And what about the compound CCS(=O)(=O)N1C/C(=C\c2ccc(F)cc2)C(=O)C2(C1)C(c1ccc(F)cc1)CN(C)C21C(=O)Nc2ccccc21 (stereo not drawn) [Compound 6g] ? 62.8%

And what about the compound CCS(=O)(=O)N1C/C(=C\c2ccc(Cl)cc2)C(=O)C2(C1)C(c1ccc(Cl)cc1)CN(C)C21C(=O)Nc2ccccc21 (stereo not drawn) [Compound 6k] ? 66.2%

And what about the compound COc1ccc(/C=C2\CN(S(C)(=O)=O)CC3(C2=O)C(c2ccc(OC)c(OC)c2)CN(C)C32C(=O)Nc3ccc(Cl)cc32)cc1OC (stereo not drawn) [Compound 6o] ? 65.9%

And what about the compound CN1CC(c2ccc(Cl)cc2)C2(CN(S(C)(=O)=O)C/C(=C\c3ccc(Cl)cc3)C2=O)C12C(=O)Nc1ccccc12 (stereo not drawn) [Compound 6i] ? 68.7%

And what about the compound CN1CC(c2ccc(F)cc2)C2(CN(S(C)(=O)=O)C/C(=C\c3ccc(F)cc3)C2=O)C12C(=O)Nc1ccccc12 (stereo not drawn) [Compound 6e] ? 66.7%

And what about the compound CCS(=O)(=O)N1C/C(=C\c2ccc(F)cc2)C(=O)C2(C1)C(c1ccc(F)cc1)CN(C)C21C(=O)Nc2ccc(Cl)cc21 (stereo not drawn) [Compound 6h] ? 67.2%

And what about the compound CCS(=O)(=O)N1C/C(=C\c2ccccc2)C(=O)C2(C1)C(c1ccccc1)CN(C)C21C(=O)Nc2ccc(Cl)cc21 (stereo not drawn) [Compound 6d] ? 62.9%

And what about the compound CCS(=O)(=O)N1C/C(=C\c2ccccc2)C(=O)C2(C1)C(c1ccccc1)CN(C)C21C(=O)Nc2ccccc21 (stereo not drawn) [Compound 6c] ? 69.6%

And what about the compound CN1CC(c2ccccc2)C2(CN(S(C)(=O)=O)C/C(=C\c3ccccc3)C2=O)C12C(=O)Nc1ccccc12 (stereo not drawn) [Compound 6a] ? 66.4%

And what about the compound CN1CC(c2ccc(Cl)cc2)C2(CN(S(C)(=O)=O)C/C(=C\c3ccc(Cl)cc3)C2=O)C12C(=O)Nc1ccc(Cl)cc12 (stereo not drawn) [Compound 6j] ? 63.3%

And what about the compound CN1CC(c2ccc(Br)cc2)C2(CN(S(C)(=O)=O)C/C(=C\c3ccc(Br)cc3)C2=O)C12C(=O)Nc1ccccc12 (stereo not drawn) [Compound 6m] ? 65.6%
